test system: HeLa; test: Cytotoxicity against human HeLa cells after 48 hrs by SRB assay; type: cell-based
READOUT_KIND: IC50 (µg/mL)

molecule=CCCCCCCCc1ccc(OC)c2[nH]c(C)c(OC)c(=O)c12 qual== result=14.4
molecule="OC(Cn1cncn1)(Cn1cncn1)c1ccc(F)cc1F [FLUCONAZOLE]" qual=> result=100
molecule="CC[C@H](C)C[C@H](C)CCCCCCCCC(=O)N[C@H]1C[C@@H](O)[C@@H](NCCN)NC(=O)[C@@H]2[C@@H](O)CCN2C(=O)[C@H]([C@H](O)CCN)NC(=O)[C@H]([C@H](O)[C@@H](O)c2ccc(O)cc2)NC(=O)[C@@H]2C[C@@H](O)CN2C(=O)[C@H]([C@@H](C)O)NC1=O [CASPOFUNGIN]" qual=> result=100
molecule=CCCCCCCC[C@H]1CCC(=O)c2[nH]c(C)c(OC)c(=O)c21 qual== result=23.4
molecule=COc1c(C)[nH]c2c(c1=O)[C@@H](CCCCCc1ccccc1)CC[C@H]2OC qual== result=11.9
molecule=CCCCCCCC[C@@H]1CCCc2[nH]c(C)c(OC)c(=O)c21 qual== result=24.7
molecule=CCCCCCCC[C@@H]1CCCc2c1c(=O)c(OC)c(CO)n2OC qual== result=26.6
molecule=CCCCCCCC[C@H]1CC[C@@H](O)c2[nH]c(C)c(OC)c(=O)c21 qual== result=50
molecule=CCCCCCCC[C@H]1CCCc2c1c(=O)c(OC)c(C)n2OC qual== result=16.1
molecule=CCCCCCCC[C@H]1CC[C@@H](OC)c2[nH]c(C)c(OC)c(=O)c21 qual== result=20
molecule=COc1c(C)n(OC)c2c(c1=O)[C@@H](CCCCCc1ccccc1)CCC2 qual== result=9.5
molecule=CCCCCCCC[C@@H]1CCCc2[nH]c(CO)c(OC)c(=O)c21 qual== result=24.4
